- Tested target: T1, RBFOX1 RRM (Homo sapiens, UniProt Q9NWB1 109-208)
- T1 sequence: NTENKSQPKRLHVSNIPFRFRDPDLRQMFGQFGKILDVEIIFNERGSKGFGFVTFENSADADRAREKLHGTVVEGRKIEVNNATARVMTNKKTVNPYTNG
- Measurement notes: EMSA; HiTS-Eq, 1 nM pool, 10 min; buffer printed only for the single-RNA assays: 10 mM Tris pH 7.5, 150 mM NaCl, 3.4 mM EDTA, 0.001% NP-40, 30 C
- Recorded conditions: tags: His6 N-terminal (pET28a); label: 5' 32P
Over roughly 16,000 sequences, “ka relative to ugcaugu” has its median near 0.0091; the highest 2% begin near 0.032. The full list was thinned out, with the highest values kept by preference.
Experimental readout: binding signal

Sure, the documented binding signal for UGCAUCU (DNA:RNA) RNA: GGGAGACCGGAAUUCAGAUUGUCCUGCAUCUUUAAAUCCCGUCGUAGCCACCA DNA 1: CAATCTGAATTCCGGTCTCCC DNA 2: TGGTGGCTACGACGGGATT is 0.0208 KA relative to UGCAUGU

Sure, the documented binding signal for UGAGUUG (DNA:RNA) RNA: GGGAGACCGGAAUUCAGAUUGUCCUGAGUUGUUAAAUCCCGUCGUAGCCACCA DNA 1: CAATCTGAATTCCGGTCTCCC DNA 2: TGGTGGCTACGACGGGATT is 0.0276 KA relative to UGCAUGU

Sure, the documented binding signal for UGUUCGU (DNA:RNA) RNA: GGGAGACCGGAAUUCAGAUUGUCCUGUUCGUUUAAAUCCCGUCGUAGCCACCA DNA 1: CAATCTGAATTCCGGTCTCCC DNA 2: TGGTGGCTACGACGGGATT is 0.0328 KA relative to UGCAUGU

Sure, the documented binding signal for AACUAGA (DNA:RNA) RNA: GGGAGACCGGAAUUCAGAUUGUCCAACUAGAUUAAAUCCCGUCGUAGCCACCA DNA 1: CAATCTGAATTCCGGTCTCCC DNA 2: TGGTGGCTACGACGGGATT is 0.00203 KA relative to UGCAUGU

Sure, the documented binding signal for GGGAUAU (DNA:RNA) RNA: GGGAGACCGGAAUUCAGAUUGUCCGGGAUAUUUAAAUCCCGUCGUAGCCACCA DNA 1: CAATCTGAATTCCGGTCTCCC DNA 2: TGGTGGCTACGACGGGATT is 0.0263 KA relative to UGCAUGU

Sure, the documented binding signal for UCGUCGU (DNA:RNA) RNA: GGGAGACCGGAAUUCAGAUUGUCCUCGUCGUUUAAAUCCCGUCGUAGCCACCA DNA 1: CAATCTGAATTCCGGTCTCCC DNA 2: TGGTGGCTACGACGGGATT is 0.0184 KA relative to UGCAUGU

Sure, the documented binding signal for CUGCUCG (DNA:RNA) RNA: GGGAGACCGGAAUUCAGAUUGUCCCUGCUCGUUAAAUCCCGUCGUAGCCACCA DNA 1: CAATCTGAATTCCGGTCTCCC DNA 2: TGGTGGCTACGACGGGATT is 0.0406 KA relative to UGCAUGU

Sure, the documented binding signal for CUGCCCG (DNA:RNA) RNA: GGGAGACCGGAAUUCAGAUUGUCCCUGCCCGUUAAAUCCCGUCGUAGCCACCA DNA 1: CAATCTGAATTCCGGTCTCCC DNA 2: TGGTGGCTACGACGGGATT is 0.0183 KA relative to UGCAUGU

Sure, the documented binding signal for UGCCCGU (DNA:RNA) RNA: GGGAGACCGGAAUUCAGAUUGUCCUGCCCGUUUAAAUCCCGUCGUAGCCACCA DNA 1: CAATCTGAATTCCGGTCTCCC DNA 2: TGGTGGCTACGACGGGATT is 0.0214 KA relative to UGCAUGU
